# Tested on: P. aeruginosa ATCC 27853
# Type: cell-based, Pseudomonas aeruginosa
# condition description: median of triplicate
Positions of bridges follow the written chain, without caps; N, C: chain ends. Non-standard residues stand in square brackets, D forms with d. Residues, ends and D or L forms follow the SMILES beside them. *: point of attachment. Ethyl(2-OBz) = O=C(OCC*)c1ccccc1; Dab = NCC[C@H](N)C(=O)O
result type: MIC P. aeruginosa ATCC 27853 (µg/mL)
Hi! Could you send only the number? It should be in µg/mL, unit omitted.

// fetch P. aeruginosa ATCC 27853 MIC P. aeruginosa ATCC 27853 for C[C@@H](O)[C@@H]1NC(=O)[C@H](CCN)NC(=O)[C@H](CCN)NC(=O)[C@H](CSCCOC(=O)c2ccccc2)NC(=O)[C@@H](Cc2ccccc2)NC(=O)[C@H](CCN)NC(=O)[C@@H](NC(=O)[C@H](CCN)NC(=O)[C@@H](NC(=O)[C@H](CCN)NC(=O)[C@@H](N)CSCCOC(=O)c2ccccc2)[C@@H](C)O)CCNC1=O [Compound 39] (H-C(Ethyl(2-OBz))[Dab]T[Dab][Dab][Dab][dF]C(Ethyl(2-OBz))[Dab][Dab]T; lactam 5-C)
2
